For each entry below, report its Bliss excess value.
- Test system: DG-75 (Burkitt's Lymphoma)
- ASSAY OVERVIEW: Bliss excess, mean over the matrix (fraction); higher = more synergy

In plain terms, COc1cccc(OCCCN)c1-c1cc(Nc2cnc(C#N)cn2)n[nH]1 [Prexasertib] + O=C(c1cc(Cc2n[nH]c(=O)c3ccccc23)ccc1F)N1CCN(C(=O)C2CC2)CC1 [Olaparib] (first compound max 1 µM, 7x7, partner max 10 µM) has a documented Bliss excess of -0.0819

In plain terms, CN(CCO)CC[C@H](CSc1ccccc1)Nc1ccc(S(=O)(=O)NC(=O)c2ccc(N3CCC([C@@H](O)c4ccccc4-c4ccc(Cl)cc4)CC3)cc2)cc1S(=O)(=O)C(F)(F)F [AZD4320] + CN(C)CCCOc1ccc(-c2ccc3ncc4c(c3c2)n(C2CCOCC2)c(=O)n4C)cn1 [AZD0156] (first compound max 1 µM, 7x7, partner max 1 µM) has a documented Bliss excess of -0.0183

In plain terms, CN(C)CCCOc1ccc(-c2ccc3ncc4c(c3c2)n(C2CCOCC2)c(=O)n4C)cn1 [AZD0156] + C[C@@H]1COCCN1C2=NC(=NC(=C2)C3(CC3)[S@](=N)(=O)C)C4=C5C=CNC5=NC=C4 [AZD6738] (first compound max 1 µM, 7x7, partner max 10 µM) has a documented Bliss excess of 0.0645

* * *

- Test system: OCUM-1 (Gastric Carcinoma)
- ASSAY OVERVIEW: combination Emax (second highest fraction inhibited in the dose matrix, 72 h); higher = more inhibition; extreme values may be limits of the assay
For each entry below, report its combination Emax value.

In plain terms, Cc1c2c(nn1C)CSCc1cc(n(C)n1)CSc1cc(c3ccccc3c1)OCCCc1c(C(=O)O)n(C)c3c-2c(Cl)ccc13 [AZD5991] + Cn1cnc2c(F)c(Nc3ccc(Br)cc3Cl)c(C(=O)NOCCO)cc21 [Selumetinib] (first compound max 1 µM, 7x7, partner max 3 µM) has a documented combination Emax of 0.895

In plain terms, C[C@@H]1COCCN1c1cc(C2([S@](C)(=N)=O)CC2)nc(-c2ccnc3[nH]ccc23)n1 [AZD6738] + Nc1ccn([C@@H]2O[C@H](CO)[C@@H](O)C2(F)F)c(=O)n1 [Gemcitabine] (first compound max 10 µM, 7x7, partner max 0.3 µM) has a documented combination Emax of 0.727

In plain terms, CN(CCO)CC[C@H](CSc1ccccc1)Nc1ccc(S(=O)(=O)NC(=O)c2ccc(N3CCC([C@@H](O)c4ccccc4-c4ccc(Cl)cc4)CC3)cc2)cc1S(=O)(=O)C(F)(F)F [AZD4320] + C=CCn1c(=O)c2cnc(Nc3ccc(N4CCN(C)CC4)cc3)nc2n1-c1cccc(C(C)(C)O)n1 [AZD1775] (first compound max 1 µM, partner max 1 µM) has a documented combination Emax of 0.87

In plain terms, Cc1cc2ncnn2cc1Nc1ncc2c(n1)n(C1CCOCC1)c(=O)n2C [AZD7648] + C=CCn1c(=O)c2cnc(Nc3ccc(N4CCN(C)CC4)cc3)nc2n1-c1cccc(C(C)(C)O)n1 [AZD1775] (first compound max 10 µM, partner max 1 µM) has a documented combination Emax of 0.384

In plain terms, Cn1cnc2c(F)c(Nc3ccc(Br)cc3Cl)c(C(=O)NOCCO)cc21 [Selumetinib] + CC(C)n1c(=O)n(C)c2cnc3cc(F)c(-c4ccc(OCCCN5CCCCC5)nc4)cc3c21 [AZD1390] (first compound max 10 µM, 7x7, partner max 0.3 µM) has a documented combination Emax of 0.951

In plain terms, CCc1c2c(nc3ccc(O)cc13)-c1cc3c(c(=O)n1C2)COC(=O)[C@]3(O)CC [SN-38] + CN(C)CCCOc1ccc(-c2ccc3ncc4c(c3c2)n(C2CCOCC2)c(=O)n4C)cn1 [AZD0156] (first compound max 0.3 µM, 7x7, partner max 1 µM) has a documented combination Emax of 0.635

In plain terms, CC(=O)c1c(C)c2cnc(Nc3ccc(N4CCNCC4)cn3)nc2n(C2CCCC2)c1=O [Palbociclib] + Cc1c2c(nn1C)CSCc1cc(n(C)n1)CSc1cc(c3ccccc3c1)OCCCc1c(C(=O)O)n(C)c3c-2c(Cl)ccc13 [AZD5991] (first compound max 10 µM, 7x7, partner max 1 µM) has a documented combination Emax of 0.285

* * *

- Test system: KINGS-1 (Low Grade Glioma)
- ASSAY OVERVIEW: Bliss excess, mean over the matrix (fraction); higher = more synergy
OBSERVED PROPERTY: Bliss excess
Lab note: jot the number down without any unit.

In plain terms, C[C@@H](Oc1cc(-c2cnn(C3CCNCC3)c2)cnc1N)c1c(Cl)ccc(F)c1Cl [Crizotinib] + Cn1cnc2c(F)c(Nc3ccc(Br)cc3Cl)c(C(=O)NOCCO)cc21 [Selumetinib] (first compound max 10 µM, 7x7, partner max 10 µM) has a documented Bliss excess of 0.0342

In plain terms, COc1cc2c(cc1OCCCCCOc1cc3c(cc1OC)C(=O)N1C=C(C)C[C@H]1C=N3)N=C[C@@H]1CC(C)=CN1C2=O [SG3199] + O=C(c1cc(Cc2n[nH]c(=O)c3ccccc23)ccc1F)N1CCN(C(=O)C2CC2)CC1 [Olaparib] (first compound max 0.001 µM, 7x7, partner max 10 µM) has a documented Bliss excess of -0.0434

In plain terms, CC1(C)CCC(CN2CCN(c3ccc(C(=O)NS(=O)(=O)c4ccc(NCC5CCOCC5)c([N+](=O)[O-])c4)c(Oc4cnc5[nH]ccc5c4)c3)CC2)=C(c2ccc(Cl)cc2)C1 [Venetoclax] + CS(=O)(=O)CCNCc1ccc(-c2ccc3ncnc(Nc4ccc(OCc5cccc(F)c5)c(Cl)c4)c3c2)o1 [Lapatinib] (first compound max 1 µM, 7x7, partner max 10 µM) has a documented Bliss excess of -0.0466

In plain terms, CC1(C)CCC(CN2CCN(c3ccc(C(=O)NS(=O)(=O)c4ccc(NCC5CCOCC5)c([N+](=O)[O-])c4)c(Oc4cnc5[nH]ccc5c4)c3)CC2)=C(c2ccc(Cl)cc2)C1 [Venetoclax] + CCN(CCO)CCCOc1ccc2c(Nc3cc(CC(=O)Nc4cccc(F)c4)[nH]n3)ncnc2c1 [AZD2811] (first compound max 1 µM, 7x7, partner max 1 µM) has a documented Bliss excess of -0.0652

In plain terms, Cc1c2c(nn1C)CSCc1cc(n(C)n1)CSc1cc(c3ccccc3c1)OCCCc1c(C(=O)O)n(C)c3c-2c(Cl)ccc13 [AZD5991] + Cc1cc2ncnn2cc1Nc1ncc2c(n1)n(C1CCOCC1)c(=O)n2C [AZD7648] (first compound max 1 µM, 7x7, partner max 10 µM) has a documented Bliss excess of -0.0095

In plain terms, C[C@@H](Oc1cc(-c2cnn(C3CCNCC3)c2)cnc1N)c1c(Cl)ccc(F)c1Cl [Crizotinib] + CC1=C(C(=CC=C1)Cl)NC(=O)C2=CN=C(S2)NC3=CC(=NC(=N3)C)N4CCN(CC4)CCO [Dasatinib] (first compound max 10 µM, 7x7, partner max 2 µM) has a documented Bliss excess of 0.0575

In plain terms, Cc1nc(Nc2ncc(C(=O)Nc3c(C)cccc3Cl)s2)cc(N2CCN(CCO)CC2)n1 [Dasatinib] + CC(=O)Nc1cccc(-n2c(=O)n(C3CC3)c(=O)c3c(Nc4ccc(I)cc4F)n(C)c(=O)c(C)c32)c1 [Trametinib] (first compound max 2 µM, 7x7, partner max 1 µM) has a documented Bliss excess of -0.0416

In plain terms, CN(CCO)CC[C@H](CSc1ccccc1)Nc1ccc(S(=O)(=O)NC(=O)c2ccc(N3CCC([C@@H](O)c4ccccc4-c4ccc(Cl)cc4)CC3)cc2)cc1S(=O)(=O)C(F)(F)F [AZD4320] + Nc1ccn([C@@H]2O[C@H](CO)[C@@H](O)C2(F)F)c(=O)n1 [Gemcitabine] (first compound max 1 µM, 7x7, partner max 0.3 µM) has a documented Bliss excess of -0.0068

In plain terms, CC1(C)CCC(CN2CCN(c3ccc(C(=O)NS(=O)(=O)c4ccc(NCC5CCOCC5)c([N+](=O)[O-])c4)c(Oc4cnc5[nH]ccc5c4)c3)CC2)=C(c2ccc(Cl)cc2)C1 [Venetoclax] + COc1cc(Nc2ncc3c(n2)-c2ccc(Cl)cc2C(c2c(F)cccc2OC)=NC3)ccc1C(=O)O [Alisertib] (first compound max 1 µM, 7x7, partner max 10 µM) has a documented Bliss excess of -0.0049

* * *

- Test system: NB7 (Neuroblastoma)
- ASSAY OVERVIEW: Bliss excess, mean over the matrix (fraction); higher = more synergy
OBSERVED PROPERTY: Bliss excess
Lab note: jot the number down without any unit.

Tested system NB7 (Neuroblastoma); Bliss excess recorded for Cc1c2c(nn1C)CSCc1cc(n(C)n1)CSc1cc(c3ccccc3c1)OCCCc1c(C(=O)O)n(C)c3c-2c(Cl)ccc13 [AZD5991] + CS(=O)(=O)CCNCc1ccc(-c2ccc3ncnc(Nc4ccc(OCc5cccc(F)c5)c(Cl)c4)c3c2)o1 [Lapatinib] (first compound max 1 µM, 7x7, partner max 10 µM) was 0.0109

Tested system NB7 (Neuroblastoma); Bliss excess recorded for CN(C)CCCOc1ccc(-c2ccc3ncc4c(c3c2)n(C2CCOCC2)c(=O)n4C)cn1 [AZD0156] + C=CCn1c(=O)c2cnc(Nc3ccc(N4CCN(C)CC4)cc3)nc2n1-c1cccc(C(C)(C)O)n1 [AZD1775] (first compound max 1 µM, partner max 1 µM) was -0.0198

Tested system NB7 (Neuroblastoma); Bliss excess recorded for CN(CCO)CC[C@H](CSc1ccccc1)Nc1ccc(S(=O)(=O)NC(=O)c2ccc(N3CCC([C@@H](O)c4ccccc4-c4ccc(Cl)cc4)CC3)cc2)cc1S(=O)(=O)C(F)(F)F [AZD4320] + Cn1cnc2c(F)c(Nc3ccc(Br)cc3Cl)c(C(=O)NOCCO)cc21 [Selumetinib] (first compound max 1 µM, 7x7, partner max 3 µM) was 0.0397

Tested system NB7 (Neuroblastoma); Bliss excess recorded for CC1(C)CCC(CN2CCN(c3ccc(C(=O)NS(=O)(=O)c4ccc(NCC5CCOCC5)c([N+](=O)[O-])c4)c(Oc4cnc5[nH]ccc5c4)c3)CC2)=C(c2ccc(Cl)cc2)C1 [Venetoclax] + Cc1cc2ncnn2cc1Nc1ncc2c(n1)n(C1CCOCC1)c(=O)n2C [AZD7648] (first compound max 1 µM, 7x7, partner max 10 µM) was -0.018

Tested system NB7 (Neuroblastoma); Bliss excess recorded for COc1cccc(OCCCN)c1-c1cc(Nc2cnc(C#N)cn2)n[nH]1 [Prexasertib] + C=CCn1c(=O)c2cnc(Nc3ccc(N4CCN(C)CC4)cc3)nc2n1-c1cccc(C(C)(C)O)n1 [AZD1775] (first compound max 1 µM, partner max 1 µM) was 0.0708

Tested system NB7 (Neuroblastoma); Bliss excess recorded for CN(CCO)CC[C@H](CSc1ccccc1)Nc1ccc(S(=O)(=O)NC(=O)c2ccc(N3CCC([C@@H](O)c4ccccc4-c4ccc(Cl)cc4)CC3)cc2)cc1S(=O)(=O)C(F)(F)F [AZD4320] + CN(C)CCCOc1ccc(-c2ccc3ncc4c(c3c2)n(C2CCOCC2)c(=O)n4C)cn1 [AZD0156] (first compound max 1 µM, 7x7, partner max 1 µM) was -0.0333

Tested system NB7 (Neuroblastoma); Bliss excess recorded for C[C@@H](Oc1cc(-c2cnn(C3CCNCC3)c2)cnc1N)c1c(Cl)ccc(F)c1Cl [Crizotinib] + Cn1cnc2c(F)c(Nc3ccc(Br)cc3Cl)c(C(=O)NOCCO)cc21 [Selumetinib] (first compound max 10 µM, 7x7, partner max 10 µM) was -0.0033
